- MEASURED TARGET: Cytochrome P450 2C19 (Homo sapiens)
- ASSAY NOTES: Cytochrome P450 Family 2 Subfamily C Member 19 (CYP2C19) small molecule antagonists: luciferase reporter qHTS assay (AID 1671197); also: nearly all actives have a fitted effect of over 65% in size
- CONDITION NOTES: P450-Glo CYP2C19 enzyme, luciferin luminescence, 1 h; series mostly up to 115 µM
Inconclusive results are not listed. Calls of active or inactive are those of the source. Calls follow the shape of the dose curve; as a rule, active = well fitted inhibition curve with a large enough effect in the repeat runs; inconclusive = weak or mixed curves; inactive = no such curve, though single readings can be large or run the other way.
Choose one outcome from this list and give only that: active, inactive

# example entries with known answers
# MOLECULE, CLASS NAME
measured = [
    ("COCC(O)CO (stereo not given)", "inactive"),
    ("CC(=O)[C@H]1CC[C@H]2[C@@H]3C=CC4=CC(=O)CC[C@@]4(C)[C@@H]3CC[C@]12C", "active"),
    ("O=Cc1c(Cl)cccc1Cl", "inactive"),
    ("COc1cc2c(N3CCN(C(=O)Nc4ccc(OC(C)C)cc4)CC3)ncnc2cc1OCCCN1CCCCC1", "inactive"),
    ("O=S1OCCO1", "inactive"),
]

[Q] Per the records of this test, what outcome belongs to COc1cc2[nH]c(=O)[nH]c(=O)c2cc1OC ?
[A] inactive

[Q] Kindly provide the recorded test outcome for the following molecule: COCc1c(C(C)C)nc(C(C)C)c(/C=C/[C@@H](O)C[C@@H](O)CC(=O)O)c1-c1ccc(F)cc1
[A] inactive

[Q] Entry CC(C)(C)CC(C)(C)c1ccc(OCCO)cc1 : call = ?
[A] active

[Q] What classification did CC(=O)Oc1ccc(C(=C2CCCCC2)c2ccc(OC(C)=O)cc2)cc1 end up with in this test?
[A] active

[Q] Field: outcome | Entry: COc1ccc(CCC(=O)c2c(O)cc(O[C@@H]3O[C@H](CO)[C@@H](O)[C@H](O)[C@H]3O[C@@H]3O[C@@H](C)[C@H](O)[C@@H](O)[C@H]3O)cc2O)cc1O
[A] inactive

###

- MEASURED TARGET: Nuclear receptor subfamily 1 group I member 3 (Homo sapiens) (UniProt Q14994)
- Sequence (Q14994 whole entry, looked up): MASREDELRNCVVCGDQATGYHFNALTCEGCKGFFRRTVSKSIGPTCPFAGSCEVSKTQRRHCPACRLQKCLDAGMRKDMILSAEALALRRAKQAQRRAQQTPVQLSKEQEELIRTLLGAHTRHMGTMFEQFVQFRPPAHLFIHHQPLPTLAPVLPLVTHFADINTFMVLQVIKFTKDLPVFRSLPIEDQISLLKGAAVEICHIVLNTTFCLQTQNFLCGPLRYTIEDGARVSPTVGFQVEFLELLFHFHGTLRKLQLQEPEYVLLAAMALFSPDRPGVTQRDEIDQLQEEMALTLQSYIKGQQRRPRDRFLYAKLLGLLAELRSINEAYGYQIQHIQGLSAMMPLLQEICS
- ASSAY NOTES: qHTS assay to identify small molecule agonists of the constitutive androstane receptor (CAR) signaling pathway (AID 1224839); also: nearly all actives have a fitted effect of over 15% in size;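 as to activation: HepG2 cells stably carrying human CAR and a CYP2B6 luciferase reporter; % is scaled to controls: 0 for no effect and ±100 for the full control effect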
- CONDITION NOTES: HepG2 hCAR CYP2B6-luciferase, agonist mode, 24 h; series mostly up to 92.4 µM
- Text: National Center for Advancing Translational Sciences [NCATS] NIH Chemical Genomics Center [NCGC] U.S. Environmental Protection Agency [EPA] National Institutes of Environmental Health Sciences [NIEHS] National Toxicology Program [NTP] […] Assay Protocol Summary: A double-stable (hCAR and CYP2B6-2.2kb) transfected cell line, derived from human hepatoma (HepG2) cells, was utilized for the duration of the quantitative high-throughput screens. […]
Results filed as inconclusive are left out. Activity calls are given as the source filed them. Calls come from the whole dose curve; as a rule, active = well fitted activation curve with a large enough effect in the repeat runs; inconclusive = weak or mixed curves; inactive = no such curve, though single readings can be large or run the other way.
Please answer using one outcome listed in 1.0 for active, 0.0 for inactive

Worked set:
# COMPOUND, CLASS NAME
rows = [
    ("CC(=O)CC(c1ccc([N+](=O)[O-])cc1)c1c(O)c2ccccc2oc1=O (configuration not stated)", 0.0),
    ("Cc1cc2nc3ccc(=[N+](C)C)cc-3sc2cc1N", 1.0),
    ("CC1(C)C2=CCCC(C)(C)[C@]23CC[C@H]1C3", 0.0),
]

[Q] What is the recorded call for this compound in the test? O=C(O)c1ccccc1NCCc1ccccc1
[A] 1.0

[Q] Which outcome did this test record for the compound CC(=O)Oc1ccc2c(c1)CC[C@@H]1[C@@H]2CC[C@]2(C)[C@@H](O)CC[C@@H]12 ?
[A] 1.0

[Q] Record request — test call for CC(C)(C)C(=O)C(Oc1ccc(Cl)cc1)n1ccnc1 (configuration not stated)
[A] 0.0

[Q] Hello, I am checking results. What call was entered for COC(=O)c1cc(Cl)ccc1NS(=O)(=O)C(F)(F)F ?
[A] 0.0

[Q] // outcome(item) with item = COC(OC)(C(=O)c1ccccc1)c1ccccc1
[A] 1.0

###

- MEASURED TARGET: Cytochrome P450 1A2 (Homo sapiens) (UniProt P05177)
- Sequence (P05177 whole entry, looked up): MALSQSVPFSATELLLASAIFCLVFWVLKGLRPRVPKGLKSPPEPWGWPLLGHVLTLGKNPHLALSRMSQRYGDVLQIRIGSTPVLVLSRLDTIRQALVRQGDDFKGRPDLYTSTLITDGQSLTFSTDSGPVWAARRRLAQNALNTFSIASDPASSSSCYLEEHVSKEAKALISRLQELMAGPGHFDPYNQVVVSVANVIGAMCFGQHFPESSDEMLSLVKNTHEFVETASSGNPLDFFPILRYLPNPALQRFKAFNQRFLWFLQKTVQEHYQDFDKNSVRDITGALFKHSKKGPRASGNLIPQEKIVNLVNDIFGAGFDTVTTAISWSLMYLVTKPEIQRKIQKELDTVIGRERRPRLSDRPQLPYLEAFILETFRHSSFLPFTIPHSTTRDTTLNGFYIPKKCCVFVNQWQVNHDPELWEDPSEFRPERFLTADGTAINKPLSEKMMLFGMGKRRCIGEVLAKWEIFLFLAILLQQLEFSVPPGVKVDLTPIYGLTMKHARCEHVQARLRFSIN
- ASSAY NOTES: Cytochrome P450 Family 1 Subfamily A Member 2 (CYP1A2) small molecule antagonists: luciferase reporter qHTS assay (AID 1671199); also: nearly all actives have a fitted effect of over 50% in size; also: potency is read from the fitted curve at half-maximal effect
- CONDITION NOTES: P450-Glo CYP1A2 enzyme, luciferin luminescence, 1 h; series mostly up to 53 µM
Records with an inconclusive call do not appear. Active and inactive are the calls of the source. Calls follow the shape of the dose curve; as a rule, active = well fitted inhibition curve with a large enough effect in the repeat runs; inconclusive = weak or mixed curves; inactive = no such curve, though single readings can be large or run the other way.
RECORDED ENDPOINT: Potency

Check out these entries, answers already filled in.
# MOLECULE, REPORTED RESULT
records = [
    ("COC(=O)[C@@H]1CC2=CC(=O)CC[C@]2(C)[C@@]23O[C@@H]2C[C@@]2(C)[C@@H](CC[C@@]24CCC(=O)O4)[C@H]13", "inactive"),
    ("CCOC(=O)c1ccccc1OC", "35.6 µM (active)"),
    ("ON(Cc1ccccc1)Cc1ccccc1", "5.64 µM (active)"),
    ("CCCCN(CCCC)C(=S)SSC(=S)N(CCCC)CCCC", "35.2 µM (active)"),
    ("CC(=O)[C@H]1CC[C@H]2[C@@H]3C[C@H](C)C4=CC(=O)CC[C@]4(C)[C@H]3[C@@H](O)C[C@]12C", "inactive"),
]

Parameter requested: Potency. Apply to each item below.
1. O=C(N[C@@H](c1ccccc1)[C@@H]1CCCCN1)c1cccc(C(F)(F)F)c1Cl
2. CC(=O)OCC(=O)[C@H]1CC[C@H]2[C@@H]3CCC4=CC(=O)CC[C@]4(C)[C@H]3CC[C@]12C
3. Cc1ccc(/C=N/n2c(-c3ccccc3)csc2=S)cc1
4. CC(C)(C)C(=O)C(Oc1ccc(Cl)cc1)n1ccnc1 (stereo unspecified)
5. CC(COc1ccc(C(C)(C)C)cc1)OS(=O)OCCCl (stereo unspecified)
6. CCCCC/C(=C\c1ccccc1)CO
7. CCOC(=N)CC(=O)OCC

[A]
1: inactive; 2: inactive; 3: 7.76 µM (active); 4: 17.4 µM (active); 5: inactive; 6: 3.94 µM (active); 7: 39.9 µM (active)

###

- MEASURED TARGET: Nuclear receptor subfamily 1 group I member 2 (Rattus norvegicus)
- ASSAY NOTES: Rat pregnane X receptor (rPXR) activation by small molecules, qHTS assay (AID 1346983); also: % is scaled to controls: 0 for no effect and ±100 for the full control effect; nearly all actives have a fitted effect of over 20% in size
- CONDITION NOTES: rPXR luciferase reporter cells, One-Glo luminescence, 24 h; active compounds read high
Records with an inconclusive call do not appear.
Assign max activation to each entry below.
Numbers only, in %.

# MOLECULE, UNITS SYMBOL, max activation
measured = [
    ("CCCCCCCCCCCC(=O)[O][Sn]([CH2]CCC)([CH2]CCC)[O]C(=O)CCCCCCCCCCC", "%", -0.202),
    ("CCCCN(CCCC)CCCOC(=O)c1ccc(N)cc1", "%", 0.416),
]

Give measured max activation for every item shown.
1. O=C(Nc1ccc([N+](=O)[O-])cc1)Nc1ccc([N+](=O)[O-])cc1
2. CCC1(C)CC(=O)NC1=O (stereo unspecified)
3. C(=C\c1ccccc1)/CN1CCN(C(c2ccccc2)c2ccccc2)CC1
4. CC(C)(C)CC(C)(C)c1ccc(OCCO)cc1

[A]
1. -0.532
2. -2.98
3. 1.1
4. -7.23

###

- ASSAY NOTES: A CellTox Green Cytotoxicity Assay to monitor cytotoxicity in HEK293 cells - 40 hour (AID 1224871); also: nearly all actives have a fitted effect of over 45% in size
- CONDITION NOTES: CellTox Green fluorescence; series mostly up to 76.8 µM
Records with an inconclusive call do not appear. Active and inactive are the calls of the source. Calls follow the shape of the dose curve; as a rule, active = well fitted activation curve with a large enough effect in the repeat runs; inconclusive = weak or mixed curves; inactive = flat fitted curve, though single readings scatter.
Tick one outcome: active, inactive

# COMPOUND, CLASS NAME
measured = [
    ("C/C(=N/NC(=O)c1ccncc1)C(=O)O", "inactive"),
]

[Q] Outcome? CCOC(=O)c1ccccc1OC
[A] inactive

[Q] # lookup: test call for CC1CC(O)CC(C)(C)C1 (centres undefined)
[A] inactive

[Q] Hi, do you know how C1COCO1 came out in this test?
[A] inactive

[Q] What did this assay record as the result for CC(C)(CCl)c1ccccc1 ?
[A] inactive

[Q] Lab log entry: O=C(O)c1ccccc1NCCc1ccccc1 — outcome as called in the assay?
[A] inactive

[Q] Check the results log: what was the call for COc1cc2c(cc1OC)-c1cc(=Nc3c(C)cc(C)cc3C)n(C)c(=O)n1CC2 ?
[A] inactive

[Q] Test call, this compound: COCCOC
[A] inactive

[Q] Which outcome was entered for the compound Cc1cc(O)c2c(O)c3c(O)cccc3cc2c1 in this test?
[A] inactive

[Q] Per the assay record, what outcome was assigned to CC(C)CCCCCCOC(=O)CCCCC(=O)OCCCCCCC(C)C ?
[A] inactive

[Q] Please state the recorded outcome for this compound: Cn1c(=O)c2c(ncn2CC(=O)O)n(C)c1=O
[A] inactive

[Q] In this assay, the call recorded for C[Si]1(C)O[Si](C)(C)O[Si](C)(C)O1 was what?
[A] inactive

[Q] Give the logged outcome of this assay for the following compound: O=C1OCCN1/N=C/c1ccc([N+](=O)[O-])o1
[A] inactive

[Q] Called result for CCOc1cc(N)c(Cl)cc1C(=O)NCC1CN(Cc2ccc(F)cc2)CCO1 (centres undefined)
[A] inactive

[Q] Record lookup: outcome of this test for C[N+]1(C)CCC(=C(c2ccccc2)c2ccccc2)CC1 ?
[A] inactive

[Q] Status in this test for CC1=C(/C=C/C(C)=C\C=C\C(C)=C\C(=O)O)C(C)(C)CCC1 ?
[A] active

[Q] What was the test verdict on Cc1cnc(C)c(C)n1 ?
[A] inactive

[Q] Each compound tested received a call. Report the one for CCCCCCOC(=O)C(C)C .
[A] inactive

[Q] I would be grateful if you could indicate the recorded call for CCC(=O)Oc1ccc(/C(CC)=C(\CC)c2ccc(OC(=O)CC)cc2)cc1 .
[A] inactive

[Q] # lookup: test call for CCC1(C)CC(=O)NC1=O (centres undefined)
[A] inactive

The values you see were collected from PubChem BioAssay (Tox21).
